Target: SHP2 N-SH2 domain T42A
Test: log2 enrichment relative to wild-type ITIM peptide; higher = stronger binding
observable: log2 enrichment
Respond using a number only.

Specify log2 enrichment for VFSVTYGELDF [PD-1 ITIM pTyr223 peptide variant D222T] and stop. 0.636

Specify log2 enrichment for VFWVDYGELDF [PD-1 ITIM pTyr223 peptide variant S220W] and stop. -0.544

Specify log2 enrichment for EFSVDYGELDF [PD-1 ITIM pTyr223 peptide variant V218E] and stop. -0.155

Specify log2 enrichment for VFSVDYNELDF [PD-1 ITIM pTyr223 peptide variant G224N] and stop. -0.336
